- assay-target: HLA-B*45:01
- assay-explanation: IEDB peptide-MHC binding, purified MHC/competitive/radioactivity; filed as Kd, often an IC50 or EC50 that approximates it; bounds were set here for any values at or beyond the usual limits of such assays
- experimental-setup: source organism: SARS coronavirus Tor2
quantity: Kd (nM)
Could you give me the number in nM? Just the number is fine.

### Prompt Would you kindly share the measured Kd for `VEFHLDGEVL` ?
### Response 6950

### Prompt Would you kindly share the measured Kd for `GETALALLLL` ?
### Response 1900

### Prompt Would you kindly share the measured Kd for `VENPDILRV` ?
### Response 474

### Prompt Would you kindly share the measured Kd for `TEFACVVAEA` ?
### Response 8.98

### Prompt Would you kindly share the measured Kd for `EELFYSYAT` ?
### Response 3.16

### Prompt Would you kindly share the measured Kd for `WEILKFLIT` ?
### Response 4990

### Prompt Would you kindly share the measured Kd for `KEGIVWVAT` ?
### Response 69.6

----------
- assay-target: HLA-B*57:01
- assay-explanation: IEDB peptide-MHC binding, purified MHC/competitive/radioactivity; filed as Kd, often an IC50 or EC50 that approximates it; bounds were set here for any values at or beyond the usual limits of such assays
- experimental-setup: source organism: Dengue virus 1 Brazil/97-11/1997
The entries below are paired with their reported pKd.
Expect pKd as a plain number equal to -log10 of the molar concentration.

> print(dat)
   sequence.text  assay.target  quantity  test.value
1      KVRKDIPQW   HLA-B*57:01       pKd        7.45
2     TTSGTYVSAI   HLA-B*57:01       pKd        6.75

Could you now look at the following sequence, please?
### Prompt Hello, I am looking for reported pKd with HLA-B*57:01 for `STSLSMTCIA` . Could you help?
### Response 5.68

----------
- assay-target: HLA-A*24:02
- assay-explanation: IEDB peptide-MHC binding, purified MHC/competitive/fluorescence; filed as Kd, often an IC50 or EC50 that approximates it; bounds were set here for any values at or beyond the usual limits of such assays
- experimental-setup: source organism: Escherichia coli E22
quantity: Kd

### Prompt Would you kindly share the measured Kd for `IYLRRYFEI` ?
### Response ≤ 100 pM

----------
- assay-target: HLA-B*08:01
- assay-explanation: IEDB peptide-MHC binding, purified MHC/direct/fluorescence; filed as Kd, often an IC50 or EC50 that approximates it; bounds were set here for any values at or beyond the usual limits of such assays
- experimental-setup: source organism: Yersinia pestis
pKd: −log10 of the molar value.
quantity: pKd

### Prompt Would you kindly share the measured pKd for `FMSLQSGDV` ?
### Response ≤ 4.70

----------
The entries below are paired with their reported pKd.
- assay-target: HLA-A*02:01
- assay-explanation: IEDB peptide-MHC binding, purified MHC/direct/fluorescence; filed as Kd, often an IC50 or EC50 that approximates it; bounds were set here for any values at or beyond the usual limits of such assays
- experimental-setup: source organism: Marburg virus - Musoke, Kenya, 1980
pKd: −log10 of the molar value.

> print(dat)
   sequence.text  quantity  test.value
1      AEILSGRVI       pKd      ≤ 4.70

### Prompt Hello, I am looking for reported pKd with HLA-A*02:01 for `QVGIFLICK` . Could you help?
### Response ≤ 4.70

### Prompt Hello, I am looking for reported pKd with HLA-A*02:01 for `NLFDWMHFL` . Could you help?
### Response ≥ 9.00
